Source: patent EP0097039A1

# System: Herpes Simplex type 1 virus (HFEM strain)
# assay info: plaque reduction assay in Vero cells infected with Herpes Simplex type 1 virus
# Assay type: cell-based
# measurement conditions: Human alphaherpesvirus 1, 96 h; concentration causing 50% reduction in number of virus plaques; Vero cells, HSV-1 HFEM strain, 4 days at 37 C; read-out: PDD50 (the source's name)
Listed here are molecules together with their documented EC50.
Write the value in µg/mL as a bare number.

{"molecule": "CCCN(CCC)S(=O)(=O)c1ccc(C(=O)OCC(=O)OC[C@H]2O[C@@H](n3cc(/C=C/Br)c(=O)[nH]c3=O)C[C@@H]2OC(=O)COC(=O)c2ccc(S(=O)(=O)N(CCC)CCC)cc2)cc1", "EC50 [µg/mL]": 2.03}

The molecule `CC(C)(Oc1ccc(Cl)cc1)C(=O)OCC(=O)OC[C@H]1O[C@@H](n2cc(/C=C/Br)c(=O)[nH]c2=O)C[C@@H]1OC(=O)COC(=O)C(C)(C)Oc1ccc(Cl)cc1` showed EC50 equal to 1.47

response.value for `CC(C)C[C@H](O)C(=O)OC[C@H]1O[C@@H](n2cc(/C=C/Br)c(=O)[nH]c2=O)C[C@@H]1OC(=O)[C@@H](O)CC(C)C` (field: EC50) = 0.16

EC50 reported for this molecule O=C(OC[C@H]1O[C@@H](n2cc(/C=C/Br)c(=O)[nH]c2=O)C[C@@H]1O)C(Cl)c1ccccc1 (stereo partly drawn) : 0.07

Briefly, EC50 measured for `COCC(=O)OC[C@H]1O[C@@H](n2cc(/C=C/Br)c(=O)[nH]c2=O)C[C@@H]1O` : 0.12

The value of EC50 measured for the molecule `CC(C)C[C@H](O)C(=O)OC[C@H]1O[C@@H](n2cc(/C=C/Br)c(=O)[nH]c2=O)C[C@@H]1O` turned out to be 0.15

---

# Test system: Herpes Simplex type 1 virus (HFEM strain)
# assay info: plaque reduction assay in Vero cells infected with Herpes Simplex type 1 virus
# Type: cell-based
# measurement conditions: Human alphaherpesvirus 1, 96 h; same PD50 expressed in µM; Vero cells, HSV-1 HFEM strain, 4 days at 37 C; read-out: PDD50 (the source's name)
# EC50 per record follows
Field format: number, assumed µM, no unit text.

// below: answered molecules
{"item smiles": "CC(C)C[C@H](O)C(=O)OC[C@H]1O[C@@H](n2cc(/C=C/Br)c(=O)[nH]c2=O)C[C@@H]1OC(=O)[C@@H](O)CC(C)C", "EC50 (µM)": 0.29}
{"item smiles": "O=C(OC[C@H]1O[C@@H](n2cc(/C=C/Br)c(=O)[nH]c2=O)C[C@@H]1OC(=O)[C@@H](O)c1ccccc1)[C@@H](O)c1ccccc1", "EC50 (µM)": 0.75}

From here, focus on the item given below.
EC50 in this record for `CCCN(CCC)S(=O)(=O)c1ccc(C(=O)OCC(=O)O[C@H]2C[C@H](n3cc(/C=C/Br)c(=O)[nH]c3=O)O[C@@H]2CO)cc1` : 0.33

---

# System: Herpes Simplex type 1 virus (HFEM strain)
# assay info: plaque reduction assay in Vero cells infected with Herpes Simplex type 1 virus
# Assay type: cell-based
# measurement conditions: Human alphaherpesvirus 1, 96 h; same PD50 expressed in µM; Vero cells, HSV-1 HFEM strain, 4 days at 37 C; read-out: PDD50 (the source's name)
attribute measured: EC50
I'd appreciate it if you included the unit after the number.

{"compound": "CCC(Br)C(=O)OC[C@H]1O[C@@H](n2cc(/C=C/Br)c(=O)[nH]c2=O)C[C@@H]1O (stereo partly drawn)", "EC50": "0.37 µM"}
{"compound": "CCCN(CCC)S(=O)(=O)c1ccc(C(=O)OCC(=O)OC[C@H]2O[C@@H](n3cc(/C=C/Br)c(=O)[nH]c3=O)C[C@@H]2OC(=O)COC(=O)c2ccc(S(=O)(=O)N(CCC)CCC)cc2)cc1", "EC50": "2.06 µM"}
{"compound": "O=C(OC[C@H]1O[C@@H](n2cc(/C=C/Br)c(=O)[nH]c2=O)C[C@@H]1O)[C@@H](O)c1ccccc1", "EC50": "0.34 µM"}
{"compound": "O=C(OC[C@H]1O[C@@H](n2cc(/C=C/Br)c(=O)[nH]c2=O)C[C@@H]1OC(=O)[C@@H](O)Cc1ccccc1)[C@@H](O)Cc1ccccc1", "EC50": "0.68 µM"}
{"compound": "CC(Cl)C(=O)OC[C@H]1O[C@@H](n2cc(/C=C/Br)c(=O)[nH]c2=O)C[C@@H]1OC(=O)C(C)Cl (stereo partly drawn)", "EC50": "0.27 µM"}

// EC50 lookup, compound = `O=C(CCl)OC[C@H]1O[C@@H](n2cc(/C=C/Br)c(=O)[nH]c2=O)C[C@@H]1OC(=O)CCl` , result: 0.29 µM
